# tested on: KDR (human, UniProt P35968 20-1356)
# Sequence (P35968 20-1356): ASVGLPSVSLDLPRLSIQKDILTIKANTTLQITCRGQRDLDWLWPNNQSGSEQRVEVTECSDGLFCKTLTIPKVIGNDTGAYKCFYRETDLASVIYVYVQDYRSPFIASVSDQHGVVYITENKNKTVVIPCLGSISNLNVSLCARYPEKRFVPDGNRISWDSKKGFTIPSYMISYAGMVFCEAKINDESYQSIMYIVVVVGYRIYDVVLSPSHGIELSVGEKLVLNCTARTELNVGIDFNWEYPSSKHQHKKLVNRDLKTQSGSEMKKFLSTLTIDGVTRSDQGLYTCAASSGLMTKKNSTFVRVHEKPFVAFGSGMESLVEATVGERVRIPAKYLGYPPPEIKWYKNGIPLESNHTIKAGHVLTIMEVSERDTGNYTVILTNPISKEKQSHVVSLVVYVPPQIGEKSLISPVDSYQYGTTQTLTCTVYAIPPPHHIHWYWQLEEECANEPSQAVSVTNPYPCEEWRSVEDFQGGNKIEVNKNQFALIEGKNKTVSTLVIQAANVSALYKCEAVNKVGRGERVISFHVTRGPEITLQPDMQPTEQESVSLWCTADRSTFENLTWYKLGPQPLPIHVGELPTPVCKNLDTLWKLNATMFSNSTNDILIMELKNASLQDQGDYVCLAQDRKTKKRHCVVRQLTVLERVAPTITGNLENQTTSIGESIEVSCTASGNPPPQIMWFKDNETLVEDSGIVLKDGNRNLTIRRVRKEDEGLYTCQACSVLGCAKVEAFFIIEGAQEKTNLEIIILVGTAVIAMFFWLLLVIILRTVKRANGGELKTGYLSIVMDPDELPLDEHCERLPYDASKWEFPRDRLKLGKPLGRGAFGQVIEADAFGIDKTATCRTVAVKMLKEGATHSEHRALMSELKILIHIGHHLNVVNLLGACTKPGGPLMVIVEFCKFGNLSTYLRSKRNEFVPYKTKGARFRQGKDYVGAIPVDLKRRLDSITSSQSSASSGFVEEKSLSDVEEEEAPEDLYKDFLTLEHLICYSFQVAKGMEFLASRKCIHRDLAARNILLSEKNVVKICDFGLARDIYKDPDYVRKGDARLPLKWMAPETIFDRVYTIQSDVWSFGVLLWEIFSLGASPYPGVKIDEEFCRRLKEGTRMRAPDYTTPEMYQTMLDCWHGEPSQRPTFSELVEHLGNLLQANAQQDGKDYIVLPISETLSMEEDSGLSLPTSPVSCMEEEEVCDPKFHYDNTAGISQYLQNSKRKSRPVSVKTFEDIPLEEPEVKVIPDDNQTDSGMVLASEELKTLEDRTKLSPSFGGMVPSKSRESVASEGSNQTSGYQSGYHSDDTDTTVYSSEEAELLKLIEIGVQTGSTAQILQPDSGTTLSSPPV
# assay: cell-based or functional assay
measure name: Activity at 133 nM (% Inhibition), 1-hour Pre-incubation at 4° C., N = 1 (%)
Report the value in % with no unit label.

Record excerpt, results attached:
Fill in the blank: the reported Activity at 133 nM (% Inhibition), 1-hour Pre-incubation at 4° C., N = 1 of 30F6 (antibody, V domains shown) VH: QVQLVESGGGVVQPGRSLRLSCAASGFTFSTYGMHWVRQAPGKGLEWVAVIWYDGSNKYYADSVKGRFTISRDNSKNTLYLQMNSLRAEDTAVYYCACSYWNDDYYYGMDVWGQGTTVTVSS VL: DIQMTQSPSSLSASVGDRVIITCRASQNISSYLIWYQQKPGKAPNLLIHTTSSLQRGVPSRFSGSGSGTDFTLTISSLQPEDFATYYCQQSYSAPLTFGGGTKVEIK is ____.
84

Same for 27A3 (antibody, V domains shown) VH: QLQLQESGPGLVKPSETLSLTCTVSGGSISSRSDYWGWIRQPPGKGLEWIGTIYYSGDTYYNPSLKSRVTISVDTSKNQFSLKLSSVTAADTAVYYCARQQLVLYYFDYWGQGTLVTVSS VL: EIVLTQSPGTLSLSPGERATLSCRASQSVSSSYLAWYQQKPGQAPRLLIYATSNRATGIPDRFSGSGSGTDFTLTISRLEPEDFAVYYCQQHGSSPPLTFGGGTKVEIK
63

---
Tell me the measured Activity at 133 nM (% Inhibition), 1-hour Pre-incubation at 4° C., N = 1 of 21H9 (antibody, V domains shown) VH: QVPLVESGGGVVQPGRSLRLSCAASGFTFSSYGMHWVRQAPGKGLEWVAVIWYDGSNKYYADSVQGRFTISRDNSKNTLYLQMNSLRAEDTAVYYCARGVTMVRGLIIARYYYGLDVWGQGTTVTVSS VL: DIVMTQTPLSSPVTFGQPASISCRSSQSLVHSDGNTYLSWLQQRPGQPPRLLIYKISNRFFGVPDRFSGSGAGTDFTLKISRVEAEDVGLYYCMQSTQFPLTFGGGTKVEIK , please.
21

# credit: patent US20100260765A1
